Values were extracted from patent US9126976B2.

Recorded IC50 by entry
target: CETP (Homo sapiens (Human), UniProt P11597); test: RTA assay, CETP-catalyzed CE and TG transfer, recombinant CETP (2% human serum); format: biochemical
Sequence (P11597 18-493 limits assumed): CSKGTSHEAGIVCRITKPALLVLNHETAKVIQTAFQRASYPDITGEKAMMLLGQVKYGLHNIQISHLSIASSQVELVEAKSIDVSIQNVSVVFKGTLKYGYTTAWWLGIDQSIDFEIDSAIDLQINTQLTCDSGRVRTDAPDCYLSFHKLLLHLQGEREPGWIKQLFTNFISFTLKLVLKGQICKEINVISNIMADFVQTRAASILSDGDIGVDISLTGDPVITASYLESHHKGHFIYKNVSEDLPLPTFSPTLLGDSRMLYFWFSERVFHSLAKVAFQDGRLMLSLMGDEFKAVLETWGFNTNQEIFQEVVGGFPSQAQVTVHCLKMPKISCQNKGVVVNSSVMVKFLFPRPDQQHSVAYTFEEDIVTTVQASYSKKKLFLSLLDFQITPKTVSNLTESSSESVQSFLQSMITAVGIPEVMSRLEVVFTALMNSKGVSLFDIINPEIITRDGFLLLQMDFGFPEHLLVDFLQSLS
measured-parameter: IC50 (nM)

molecule: O[C@H](CN1c2ccccc2N(Cc2cc(C(F)(F)F)cc(C(F)(F)F)c2)C[C@H]1c1ccccc1)C(F)(F)F [Example 3]
system-under-test: CETP (Homo sapiens (Human), UniProt P11597)
endpoint-value: 74
//
molecule: CCOc1cccc(CN2C[C@@H](c3ccccc3)N(C[C@@H](O)C(F)(F)F)c3ccccc32)c1 [Example 8]
system-under-test: CETP (Homo sapiens (Human), UniProt P11597)
endpoint-value: 301
//
molecule: O[C@H](CN1c2ccccc2N(Cc2cccc(C(F)(F)F)c2)C[C@H]1c1ccccc1)C(F)(F)F [Example 9]
system-under-test: CETP (Homo sapiens (Human), UniProt P11597)
endpoint-value: 47
